The values you see were collected from patent US20240002344A1.

Molecular target: recombinant human KDM4A (Homo sapiens, UniProt O75164)
Sequence (O75164 1-359 limits assumed): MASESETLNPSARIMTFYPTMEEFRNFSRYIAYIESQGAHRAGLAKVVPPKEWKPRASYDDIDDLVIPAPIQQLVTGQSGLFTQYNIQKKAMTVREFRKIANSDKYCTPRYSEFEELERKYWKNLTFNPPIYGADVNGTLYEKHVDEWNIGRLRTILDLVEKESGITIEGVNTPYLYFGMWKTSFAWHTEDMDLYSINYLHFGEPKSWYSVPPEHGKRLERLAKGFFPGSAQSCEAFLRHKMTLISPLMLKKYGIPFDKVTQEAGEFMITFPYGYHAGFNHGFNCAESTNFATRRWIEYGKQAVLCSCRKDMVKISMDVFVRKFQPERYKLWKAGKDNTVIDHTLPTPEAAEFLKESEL
Test: 14CO2 capture enzymatic assay (decarboxylation of [1-14C] αKG), KDM4A
Settings: 10 μM [1-14C] αKG, 90 μM non-labeled αKG, 50 μM peptide substrate, 37° C., 1 hour, final 1% DMSO
property: IC50

N#Cc1cc(Sc2ccccc2)nc(C(=O)CCC(=O)O)c1O: > 40 µM
N#Cc1cc(-c2ccc(Cl)cc2)nc(C(=O)CCC(=O)O)c1O: ≥ 40 µM
CN(C(=O)c1ccccc1)c1cc(C#N)c(O)c(C(=O)CCC(=O)O)n1: > 40 µM
N#Cc1cc(F)ccc1-c1cc(C#N)c(O)c(C(=O)CCC(=O)O)n1: > 40 µM

Could you now consider this next compound?
## Input IC50 for N#Cc1cc(Cc2cccc(C(F)(F)F)c2)nc(C(=O)CCC(=O)O)c1O ?
## Output > 40 µM

###

Target: recombinant human KDM4A (Homo sapiens)
Assay: 14CO2 capture enzymatic assay (decarboxylation of [1-14C] αKG), KDM4A
Details: 10 μM [1-14C] αKG, 90 μM non-labeled αKG, 50 μM peptide substrate, 37° C., 1 hour, final 1% DMSO
Method: Enzymatic activity was determined based on the capture of ^14CO2 released by the decarboxylation of [1-^14C] αKG (Zhang et al., Anal. Biochem., 1998, vol. 271, pp. 137-142). [1-^14C]alphaketoglutarate (αKG) was from Perkin-Elmer, H3K4me3 and H3K9me3 peptides were from Mimotopes. All other reagents were from Sigma. […] The dry filter paper was exposed to a storage phosphor screen for 24-72 hours and the images recorded using a Typhoon FLA 7000 Imager (Amersham Biosciences, Piscataway, NJ). […]
pIC50: −log10 of the molar value.
property: pIC50

Cc1ccc(C(F)(F)F)cc1-c1cc(C#N)c(O)c(C(=O)CCC(=O)O)n1 [Example 97]: < 4.40
N#Cc1cc(-c2ccccc2Cl)nc(C(=O)CCC(=O)O)c1O [Example 70]: < 4.40
N#Cc1cc(-c2ccc3ccccc3c2)nc(C(=O)CCC(=O)O)c1O [Example 77]: 4.92
Cc1ccccc1Oc1cc(C#N)c(O)c(C(=O)CCC(=O)O)c1 [Example 140]: < 4.40
N#Cc1cc(Cc2ccccc2)cc(C(=O)CCC(=O)O)c1O [Example 117]: < 4.40

// switching to the query compound
## Input Form field: pIC50 recorded for N#Cc1cc(-c2cc(F)ccc2Cl)nc(C(=O)CCC(=O)O)c1O [Example 108] with recombinant human KDM4A (Homo sapiens) (enter value)
## Output < 4.40

###

Target: recombinant human KDM5B (Homo sapiens)
Test: 14CO2 capture enzymatic assay (decarboxylation of [1-14C] αKG), KDM5B
Conditions: 10 μM [1-14C] αKG, 90 μM non-labeled αKG, 50 μM peptide substrate, 37° C., 1 hour, final 1% DMSO
pIC50: −log10 of the molar value.
property: pIC50

Below: 4 compounds and their reported pIC50.
N#Cc1cc(Oc2cccc(Cl)c2)cc(C(=O)CCC(=O)O)c1O [Example 138]: 6.41
N#Cc1cccc(Cc2cc(C#N)c(O)c(C(=O)CCC(=O)O)n2)c1 [Example 45]: 6.27
N#Cc1cc(Cc2c(F)cc(F)cc2F)nc(C(=O)CCC(=O)O)c1O [Example 55]: 6.66
COc1ccccc1-c1cc(C#N)c(O)c(C(=O)CCC(=O)O)n1 [Example 14]: 6.33

A. N#Cc1cc(NC(=O)c2ccccc2)nc(C(=O)CCC(=O)O)c1O [Example 158]
B. Cc1cc(Cl)ccc1-c1cc(C#N)c(O)c(C(=O)CCC(=O)O)n1 [Example 90]
## Input Lab note: check whether A or B shows the higher recorded pIC50. Answer by stating the label of the chosen item.
## Output A
(A: 7.10, B: 6.60)

A. N#Cc1cc(Cc2c(Cl)cccc2Cl)cc(C(=O)CCC(=O)O)c1O [Example 121]
B. N#Cc1ccccc1Cc1cc(C#N)c(O)c(C(=O)CCC(=O)O)n1 [Example 46]
C. N#Cc1cc(-c2cccc(Cl)c2)nc(C(=O)CCC(=O)O)c1O [Example 23]
D. COc1ccc(Oc2cc(C#N)c(O)c(C(=O)CCC(=O)O)c2)cc1 [Example 141]
E. N#Cc1nc(-c2ccccc2)cc(C(=O)CCC(=O)O)c1O [Example 157]
## Input Exam item: list the entries in increasing order of pIC50. Answer with the labels in sequence, matching the requested order.
## Output E, B, D, C, A

I. N#Cc1cc(Cc2c(Cl)ccc(Cl)c2Cl)nc(C(=O)CCC(=O)O)c1O [Example 156]
II. N#Cc1cc(Cc2ccccc2F)nc(C(=O)CCC(=O)O)c1O [Example 43]
## Input Given the listed records, identify the one among I and II with higher pIC50. Give the label of your selection.
## Output I
(I: 7.15, II: 6.82)

I. N#Cc1cc(CCc2ccccc2)nc(C(=O)CCC(=O)O)c1O [Example 15]
II. N#Cc1cc(-c2cccc3cccnc23)nc(C(=O)CCC(=O)O)c1O [Example 116]
III. N#Cc1cc(-c2ccc(F)cc2)nc(C(=O)CCC(=O)O)c1O [Example 19]
## Input Arrange items by their pIC50 values in increasing order. Put the labels in the requested order and write them down.
## Output I, III, II

###

Molecular target: recombinant human KDM4A (Homo sapiens)
Assay: 14CO2 capture enzymatic assay (decarboxylation of [1-14C] αKG), KDM4A
Details: 10 μM [1-14C] αKG, 90 μM non-labeled αKG, 50 μM peptide substrate, 37° C., 1 hour, final 1% DMSO
property: IC50

## Input Which IC50 is reported with recombinant human KDM4A (Homo sapiens) for this entry: N#Cc1cc(-c2cccc3ccccc23)nc(C(=O)CCC(=O)O)c1O [Example 68] ?
## Output > 40 µM

###

Molecular target: recombinant human KDM5B (Homo sapiens, UniProt Q9UGL1)
Sequence (Q9UGL1 374-755 limits assumed): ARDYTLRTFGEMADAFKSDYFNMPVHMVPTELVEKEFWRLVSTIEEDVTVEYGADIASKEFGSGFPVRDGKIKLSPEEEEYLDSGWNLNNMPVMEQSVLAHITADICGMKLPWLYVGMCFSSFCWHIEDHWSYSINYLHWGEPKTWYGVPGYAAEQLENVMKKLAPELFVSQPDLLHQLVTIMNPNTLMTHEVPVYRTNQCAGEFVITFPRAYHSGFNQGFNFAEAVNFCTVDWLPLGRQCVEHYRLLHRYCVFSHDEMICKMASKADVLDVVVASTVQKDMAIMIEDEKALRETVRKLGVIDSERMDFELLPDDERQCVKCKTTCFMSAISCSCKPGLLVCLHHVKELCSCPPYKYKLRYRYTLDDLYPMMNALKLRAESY
Experiment: 14CO2 capture enzymatic assay (decarboxylation of [1-14C] αKG), KDM5B
Details: 10 μM [1-14C] αKG, 90 μM non-labeled αKG, 50 μM peptide substrate, 37° C., 1 hour, final 1% DMSO
Experimental: Enzymatic activity was determined based on the capture of ^14CO2 released by the decarboxylation of [1-^14C] αKG (Zhang et al., Anal. Biochem., 1998, vol. 271, pp. 137-142). [1-^14C]alphaketoglutarate (αKG) was from Perkin-Elmer, H3K4me3 and H3K9me3 peptides were from Mimotopes. All other reagents were from Sigma. […] The dry filter paper was exposed to a storage phosphor screen for 24-72 hours and the images recorded using a Typhoon FLA 7000 Imager (Amersham Biosciences, Piscataway, NJ). […]
pIC50: −log10 of the molar value.
property: pIC50

Examples with their reported pIC50 follow.
N#Cc1cc(Cc2cccc(Cl)c2)nc(C(=O)CCC(=O)O)c1O [Example 18]: 7.00
N#Cc1cc(CCc2ccccc2)cc(C(=O)CCC(=O)O)c1O [Example 135]: 6.43
N#Cc1cc(-c2cccc(-c3ccccc3)c2)nc(C(=O)CCC(=O)O)c1O [Example 74]: 7.22

a. N#Cc1cc(Cc2c(Cl)cc(Cl)cc2Cl)nc(C(=O)CCC(=O)O)c1O [Example 144]
b. N#Cc1cc(Cc2ccc(OC(F)(F)F)cc2)nc(C(=O)CCC(=O)O)c1O [Example 47]
## Input Param metric = pIC50; output whichever of a , b has the minimum value. Give the label under which the chosen entry appears.
## Output b

P. N#Cc1cc(-c2ccc(C(F)(F)F)cc2)nc(C(=O)CCC(=O)O)c1O [Example 26]
Q. N#Cc1cc(C2CCCCC2)nc(C(=O)CCC(=O)O)c1O [Example 25]
R. CN(C(=O)c1ccccc1)c1cc(C#N)c(O)c(C(=O)CCC(=O)O)n1 [Example 159]
S. Cc1cccc(C)c1C(=O)N(C)c1cc(C#N)c(O)c(C(=O)CCC(=O)O)n1 [Example 130]
## Input Order the items by recorded pIC50; the first position goes to the largest value. Put the labels in the order asked and list them.
## Output P, Q, R, S

a. Cc1cccc(C)c1Cc1cc(C#N)c(O)c(C(=O)CCC(=O)O)c1 [Example 122]
b. Cc1cccc(C)c1Cc1cc(C(=O)CCC(=O)O)c(O)c(C#N)n1 [Example 133]
## Input a or b : whose pIC50 is greater? Answer with the label corresponding to your selection.
## Output a

A. N#Cc1cc(-c2cccc(F)c2)nc(C(=O)CCC(=O)O)c1O [Example 20]
B. Cc1ccc(C(F)(F)F)cc1-c1cc(C#N)c(O)c(C(=O)CCC(=O)O)n1 [Example 97]
## Input Sorting by pIC50 in descending order, would A or B appear first? When you have decided, please share the label of that item.
## Output A
(A: 6.77, B: 6.52)
